Test system: HEK293
Assay: Cytotoxic Profiling of Annotated Libraries Using Quantitative High-Throughput Screening (AID 1296008); also: nearly all actives have a fitted effect of over 60% in size; as to max response: % is scaled to controls: 0 for no effect and ±100 for the full control effect
Details: Five cell lines viability, CellTiter-Glo ATP luminescence, 48-72 h; active compounds read low
Method: Cell-based phenotypic screening is a commonly used approach to discover biological pathways, novel drug targets, chemical probes and high-quality hit-to-lead molecules. […] A pintool (Kalypsys) was used to transfer 23 nL of compound solution to the 1536-well assay plates. […] Plates were left at room temperature for 10 min before imaging the ATP-coupled luminescence using a ViewLux microplate imager (PerkinElmer, Waltham, MA).
Results filed as inconclusive are left out. Activity calls are given as the source filed them. Calls follow the shape of the dose curve; as a rule, active = well fitted inhibition curve with a large enough effect; inconclusive = small, poorly fitted or top-dose-only effect; inactive = flat fitted curve, though single readings scatter.
max response listing for selected molecules.

CSc1ccc(C(=O)N[C@@H]2CCCC[C@@H]2NC(=O)CNC(=O)c2cc(C(F)(F)F)ccc2NC(=O)NC(C)C)cc1 :: -11.3% (inactive)
CO[C@H]1/C=C/[C@@](C)(O)/C=C/C(=O)O[C@H](C)[C@@H](C)CC/C=C/1C :: -82.6% (inactive)

Reported max response for COc1ccc(C2COc3cc(O)ccc3C2)c(O)c1 (stereo not drawn) was -0.71% (inactive)

----------
Tested on: HeLa
Experiment: Primary qHTS to identify gynecologic anti-cancer compounds using libraries of approved drugs and bioactive compounds (AID 1345084); also: nearly all actives have a fitted effect of over 55% in size
Conditions: Gynecologic cancer cell panel viability, ATPlite luminescence, 48 h; series mostly up to 57.5 µM
Records with an inconclusive call do not appear. Calls of active or inactive are those of the source. Calls follow the shape of the dose curve; as a rule, active = well fitted cell-killing curve with a large enough effect; inconclusive = small, poorly fitted or top-dose-only effect, or effect the other way; inactive = flat fitted curve, though single readings scatter.
Field 'call' accepts t (active), f (inactive)

CN(C)c1ccc2c(c1)OC(N)=C(C#N)C2c1cccc(C(F)(F)F)c1 (stereo unspecified) :: t
Nc1ncnc2c1ncn2CCNCCCCCO :: f
COc1ccc(-c2nc(-c3ccc(-c4cccc(Cl)c4)o3)[nH]c2-c2ccc(OC)cc2)cc1 :: f
COc1c2c(c(C)c3c1C(=O)OC3)O[C@@]1(C)CC(O)C(C(C)(C)O)[C@](C)(CCC(=O)O)[C@H]1C2 (stereo partly specified) :: f
O=C(c1ccc(/C=C/c2n[nH]c3ccccc23)cc1)N1CCNCC1 :: t

Name the outcome recorded for C=C1C(OC(=O)/C(C)=C\C)[C@@]23CCC4[C@@](C)(CCC[C@@]4(C)C(=O)O)C2CC[C@H]1C3OC(C)=O (stereo partly specified) in the assay. f

----------
Tested on: SKOV3
Experiment: Primary qHTS to identify gynecologic anti-cancer compounds using libraries of approved drugs and bioactive compounds (AID 1345084); also: nearly all actives have a fitted effect of over 55% in size
Settings: Gynecologic cancer cell panel viability, ATPlite luminescence, 48 h; series mostly up to 57.5 µM
Results filed as inconclusive are left out. Calls of active or inactive are those of the source. Calls follow the shape of the dose curve; as a rule, active = well fitted cell-killing curve with a large enough effect; inconclusive = small, poorly fitted or top-dose-only effect, or effect the other way; inactive = flat fitted curve, though single readings scatter.
Thanks in advance; please answer with one of these: active, inactive

Could you kindly confirm the outcome this assay logged for O=C(O)/C=C/c1ccc(O)c(O[C@@H]2O[C@H](CO)[C@@H](O)[C@H](O)[C@H]2O)c1 ? inactive

Name the outcome recorded for Cn1nc(C(C)(C)C)cc1C(=O)NC(Cc1cccc(Cl)c1)C(=O)NCC#N (stereo unspecified) in the assay. inactive

// outcome(item) with item = CNS(=O)(=O)CC1CCC(N(C)c2ncnc3[nH]ccc23)CC1 (stereo unspecified) inactive

For C[C@@H]1C[C@@H]([C@@H](O)C(C)(C)O)O[C@H]2C[C@@]3(C)C(=C12)C[C@H](O)[C@H]1[C@@]2(C)CCC(=O)C(C)(C)C2CC[C@@]13C (stereo partly specified) , which call appears in the assay record? inactive

Each compound tested received a call. Report the one for OCC1OC(Oc2cc(O)cc(/C=C/c3ccc(O)cc3)c2)C(O)C(O)C1O (stereo unspecified) . inactive

Name the outcome recorded for CCOC(=O)CCN(C(=O)c1ccc2c(c1)nc(CNc1ccc(C(=N)N)cc1)n2C)c1ccccn1 in the assay. inactive

How did this test come out for O=C(O)c1cc(-c2c(-c3ccccc3)nn3ccccc23)n[nH]c1=O ? inactive

Which result was noted for this compound in the test: C=C1[C@@H]2CC[C@@H]3[C@@](CCC4C(C(=O)O)(C(=O)O)C[C@@H](O[C@@H]5O[C@H](CO)[C@@H](O)[C@H](O)[C@H]5OC(=O)CC(C)C)C[C@]43C)(C2)[C@H]1O (stereo partly specified) inactive

How was C=C(CO[C@@H]1O[C@H](CO[C@@H]2OC[C@](O)(CO)[C@H]2O)[C@@H](O)[C@H](O)[C@H]1O)C1Cc2cc(C(C)=O)ccc2O1 (stereo partly specified) classified in this test? inactive

Outcome? Nc1nccn2c(C3CCC(C(=O)O)CC3)nc(-c3cc4cccc(Cl)c4[nH]3)c12 (stereo unspecified) active

What classification did COc1cccc2cc3c(c(O[C@@H]4O[C@H](CO[C@@H]5O[C@H](CO)[C@@H](O)[C@H](O)[C@H]5O)[C@@H](O)[C@H](O)[C@H]4O)c12)C(C)OC3=O (stereo partly specified) end up with in this test? inactive

----------
Test system: KB-3-1
Experiment: Cytotoxic Profiling of Annotated Libraries Using Quantitative High-Throughput Screening (AID 1296008); also: nearly all actives have a fitted effect of over 60% in size
Conditions: Five cell lines viability, CellTiter-Glo ATP luminescence, 48-72 h
Results filed as inconclusive are left out. Activity calls are given as the source filed them. The call rests on the fitted dose curve; in most records, active means well fitted inhibition curve with a large enough effect; inconclusive means small, poorly fitted or top-dose-only effect; inactive means flat fitted curve, though single readings scatter.
API: response.call in t = active, f = inactive

CC1CCC2C(C)(C)[C@@H](O)CC[C@]2(C)C12Cc1c(O)cc3c(c1O2)CN(C(CCC(=O)O)C(=O)O)C3=O (stereo partly specified) :: f
C[C@H](Nc1ncnc2nc[nH]c12)c1cc2ccc(F)cc2nc1-c1ccccn1 :: f
C=C1C(O)CC2C(C(=O)O)=COC(O[C@@H]3O[C@H](COC(=O)/C=C/c4ccc(O)cc4)[C@@H](O)[C@H](O)[C@H]3O)C12 (stereo partly specified) :: f
O=C1OCc2cc3cccc(O[C@@H]4O[C@H](CO)[C@@H](O)[C@H](O)[C@H]4O)c3c(O)c21 :: f
Cc1ccc(S(=O)(=O)c2ccc([N+](=O)[O-])o2)cc1 :: t

Please turn your attention to the following entry.
Lab log entry: CC(C)C(=O)OC[C@H]1O[C@H](O[C@H]2O[C@H](CO)[C@@H](O)[C@H](O)[C@H]2O)[C@H](O)[C@@H](O)[C@@H]1O — outcome as called in the assay? f

----------
The compounds listed here are annotated with their activity change, negative = cell killing.
Assay: Primary qHTS for inhibitors of nuclear receptor binding SET domain protein 2 (NSD2) in an RCH-ACV wild type WT cells (2C) (AID 1645877); also: % is scaled to controls: 0 for no effect and ±100 for the full control effect; nearly all actives have a fitted effect of over 70% in size
Conditions: RCH-ACV (leukaemia line) NSD2 WT (2C) viability, CellTiter-Glo, 72 h; series mostly up to 44.9 µM
Results filed as inconclusive are left out. Activity calls are given as the source filed them. The call rests on the fitted dose curve; in most records, active means well fitted inhibition curve with a large enough effect; inconclusive means small, poorly fitted or top-dose-only effect; inactive means no such curve, though single readings can be large or run the other way.

CC1OC(OC2C(CO)OC(OCC3OC(OC(=O)C45CCC(C)(C)CC4C4=CCC6C7(C)CCC(OC8OC(CO)C(O)C(OC9OC(CO)C(O)C(O)C9O)C8O)C(C)(C)C7CCC6(C)C4(C)CC5)C(O)C(O)C3O)C(O)C2O)C(O)C(O)C1OC1OC(CO)C(O)C(O)C1O (centres undefined) :: -10.4% [at 9.23 µM] (inactive)

C[C@@H]1O[C@@H](O[C@H]2[C@H](O[C@H]3[C@H](O)[C@@H](C(=O)O)O[C@@H](O[C@H]4CC[C@@]5(C)C(CC[C@]6(C)C5CC[C@]57OC[C@@]8(CCC(C)(C)CC85)[C@H](O)C[C@]76C)C4(C)C)[C@@H]3O[C@@H]3O[C@H](CO)[C@@H](O[C@@H]4OC[C@@H](O)[C@H](O)[C@H]4O)[C@H](O)[C@H]3O)O[C@H](CO)[C@H](O)[C@@H]2O)[C@H](O)[C@H](O)[C@H]1O (some centres undefined) yielded activity change, negative = cell killing of -1.94% [at 9.23 µM] (inactive)

activity change, negative = cell killing measured on C/C=C(\C)C(=O)OCC1OC(OC2OC(COC(=O)/C(C)=C/C)C(OC3OC(CO)C(OC(=O)/C(C)=C/C)C(OC(=O)/C(C)=C/C)C3O)C(O)C2O)C(O)C(O)C1OC1OC(CO)C(OC(=O)/C(C)=C/C)C(OC(=O)/C(C)=C/C)C1O (centres undefined) = -15.3% [at 9.23 µM] (inactive)

Entry O=C(O)C1CN(Cc2ccc(-c3nc4cc(Cc5ccccc5F)ccc4s3)c(F)c2)C1 — recorded activity change, negative = cell killing = 2.02% [at 9.23 µM] (inactive)

Lab note: measured activity change, negative = cell killing of C[C@@H]1CC[C@]2(C(=O)O[C@@H]3O[C@H](CO)[C@@H](O)[C@H](O)[C@H]3O)CC[C@]3(C)C(=CCC4[C@@]5(C)C[C@@H](O)[C@H](O)[C@@](C)(C(=O)O[C@H]6[C@H](O)C[C@@]7(C)C(CC[C@]8(C)C7CC=C7[C@H]9[C@](C(=O)O[C@@H]%10O[C@H](CO)[C@@H](O)[C@H](O)[C@H]%10O)(CC[C@@H](C)[C@@]9(C)O)CC[C@]78C)[C@@]6(CO)C(=O)O)C5CC[C@]43C)[C@@H]2[C@]1(C)O (some centres undefined) was 0.118% [at 9.23 µM] (inactive)

The compound CC1(C)CC[C@]2(C(=O)O[C@@H]3O[C@H](CO[C@@H]4O[C@H](CO)[C@@H](O)[C@H](O)[C@H]4O[C@@H]4O[C@H](CO)[C@H](O)[C@H](O)[C@H]4O)[C@@H](O)[C@H](O[C@@H]4O[C@H](CO)[C@@H](O)[C@H](O)[C@H]4O)[C@H]3O)CC[C@]3(C)C(=CCC4[C@@]5(C)CC[C@H](O[C@@H]6OC[C@@H](O)[C@H](O)[C@H]6O)[C@@](C)(C(=O)O)C5CC[C@]43C)[C@@H]2C1 (some centres undefined) showed activity change, negative = cell killing equal to -8.76% [at 9.23 µM] (inactive)

Value of measured activity change, negative = cell killing for the entry CC1OC(OC2C(C)OC(OC3C(OC(=O)C45CCC(C)(C)CC4C4=CCC6C7(C)CCC(OC8OC(C(=O)O)C(O)C(O)C8OC8OC(CO)C(O)C(OC9OC(C)C(O)C(O)C9O)C8O)C(C)(CO)C7CCC6(C)C4(C)CC5)OC(CO)C(O)C3O)C(O)C2O)C(O)C(O)C1O (centres undefined) : 3.53% [at 9.23 µM] (inactive)

Short answer for CC1(C)CC[C@]2(C(=O)O[C@@H]3O[C@H](CO)[C@@H](O)[C@H](O)[C@H]3O)CC[C@]3(C)C(=CCC4[C@@]5(C)CC[C@H](O[C@@H]6O[C@H](C(=O)O)[C@@H](O)[C@H](O[C@@H]7O[C@H](CO)[C@H](O)[C@H](O)[C@H]7O)[C@H]6O)C(C)(C)C5CC[C@]43C)C2C1 (some centres undefined) : activity change, negative = cell killing was -15.1% [at 9.23 µM] (inactive)

Memo: C[C@@H]1O[C@@H](O[C@@H]2CO[C@@H](O[C@H]3CC[C@@]4(C)C(CC[C@]5(C)C4CC=C4[C@@H]6CC(C)(C)CC[C@]6(C(=O)O[C@@H]6O[C@H](CO)[C@@H](O)[C@H](O)[C@H]6O)CC[C@]45C)[C@]3(C)CO)[C@H](O)[C@H]2O[C@@H]2O[C@H](CO)[C@@H](O)[C@H](O)[C@H]2O)[C@H](O)[C@H](O)[C@H]1O (some centres undefined) , reported activity change, negative = cell killing: -18.1% [at 9.23 µM] (inactive)
